- Target: UniProtKB P21554
- Assay Procedure: cAMP CNR1 Hunter cell line antagonist assay (CB1 assay)
- Test Parameters: antagonist mode, cAMP CNR1 Hunter cells, EC80 agonist; read-out: CB1 assay, Efficacy (IC50)
- Method: cAMP CNR1 Hunter cell line (Eurofins DiscoveryX) were expanded from freezer stocks and seeded in a total volume of 20 μL into white walled, 384-well microplates and incubated at 37° C. for the appropriate time prior to testing. […] Microplates were read following signal generation with a PerkinElmer Envision™ instrument for chemiluminescent signal detection. Compound activity (IC50) was analyzed using CBIS data analysis suite (ChemInnovation, CA).
Reported IC50 values for the following compounds.

Query: Item CC(C)CC1Oc2cc(S(=O)(=O)Nc3ccc(F)cc3)c(Br)cc2NC1=O (stereo not shown) [BC19782] has what recorded IC50?
Result: ≥ 25 µM

Query: Look at this compound and give its reported IC50. CCC1Oc2c(cc(Cl)cc2S(=O)(=O)Nc2ccc(F)c(F)c2)NC1=O (stereo not shown) [BC19736]
Result: ≥ 25 µM

Query: Item CC1Oc2c(cc(Cl)cc2S(=O)(=O)Nc2ccc(C#N)cc2)NC1=O (stereo not shown) [BC19730] has what recorded IC50?
Result: 1 to 25 µM

Query: # lookup: IC50 of CCC1Oc2c(cc(Br)cc2S(=O)(=O)Nc2ccccc2)N(C)C1=O (stereo not shown) [BC19927]
Result: ≥ 25 µM

Query: What value of IC50 has been reported for the following compound? CC(C)c1ccc(NS(=O)(=O)c2cc(S(C)(=O)=O)cc3c2OCC(=O)N3)cc1 [BC19424]
Result: ≥ 25 µM

Query: Would you mind telling me what IC50 value was observed for CCC1Oc2cc(S(=O)(=O)Nc3ccc(C)c(F)c3)c(Br)cc2N(C)C1=O (stereo not shown) [BC19924] ?
Result: 1 to 25 µM

Query: For the compound CCS(=O)(=O)c1cc2c(c(S(=O)(=O)Nc3cccc(F)c3)c1)OCC(=O)N2 [BC19440] , what IC50 is on record?
Result: ≥ 25 µM

Query: # get_value(readout='IC50', item= Cc1ccc(NS(=O)(=O)c2cc3c(cc2Br)NC(=O)C(CC(C)C)O3)cc1Cl (stereo not shown) [BC19768] )
Result: 1 to 25 µM

New cases:
Query: Recorded IC50 of CCS(=O)(=O)c1cc2c(c(S(=O)(=O)Nc3ccc(F)cc3Cl)c1)OCC(=O)N2 [BC19442] , please.
Result: ≥ 25 µM

Query: Given CCC1Oc2c(cc(Br)cc2S(=O)(=O)NC2CCCCC2)NC1=O (stereo not shown) [BC19233] , state its recorded IC50.
Result: ≥ 25 µM

Query: IC50 for CCC1Oc2cc(S(=O)(=O)NCc3ccc(C(F)(F)F)cc3)c(Br)cc2NC1=O (stereo not shown) [BC19370] ?
Result: ≥ 25 µM

Query: Which IC50 value belongs to O=C1CCOc2cc(S(=O)(=O)Nc3ccc(F)cc3Cl)c(Br)cc2N1 [BC19658] ?
Result: ≥ 25 µM

Query: Fill blank: measured IC50 of the compound CC1Oc2cc(S(=O)(=O)NC3CCC(O)CC3)c(Br)cc2NC1=O (stereo not shown) [BC19360] is ____.
Result: ≥ 25 µM

Query: For the compound shown here, CC1Nc2cc(S(=O)(=O)N3CCCC3)ccc2NC1=O (stereo not shown) [BC19235] , give the reported IC50.
Result: ≥ 25 µM

Query: Requested read-out: IC50. Entry: CS(=O)(=O)c1cc2c(c(S(=O)(=O)Nc3ccc(C#N)cc3)c1)OCC(=O)N2 [BC19431]
Result: ≥ 25 µM

---

# pIC50 per record follows
- Target: CB1 (CNR1) (Homo sapiens, UniProt P21554)
- Sequence (P21554 whole entry): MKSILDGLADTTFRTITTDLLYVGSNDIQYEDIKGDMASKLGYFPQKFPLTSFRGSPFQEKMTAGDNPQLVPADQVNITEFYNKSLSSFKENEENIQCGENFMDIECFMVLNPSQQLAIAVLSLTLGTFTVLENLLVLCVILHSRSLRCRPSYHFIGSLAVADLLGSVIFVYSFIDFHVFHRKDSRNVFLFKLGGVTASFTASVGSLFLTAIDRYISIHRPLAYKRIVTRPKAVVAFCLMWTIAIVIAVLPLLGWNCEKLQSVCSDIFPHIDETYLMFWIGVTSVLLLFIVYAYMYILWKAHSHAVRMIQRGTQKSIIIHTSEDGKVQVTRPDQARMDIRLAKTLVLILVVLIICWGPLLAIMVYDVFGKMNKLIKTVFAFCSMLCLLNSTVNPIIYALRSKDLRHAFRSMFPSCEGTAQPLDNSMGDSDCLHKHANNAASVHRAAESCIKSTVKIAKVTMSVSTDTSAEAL
- Assay Procedure: cAMP CNR1 Hunter cell line antagonist assay (CB1 assay)
- Assay type: cell-based
- Test Parameters: antagonist mode, cAMP CNR1 Hunter cells, EC80 agonist; read-out: CB1 assay, Efficacy (IC50)
pIC50: −log10 of the molar value.

Query: Name the recorded pIC50 for Cc1ccc(NS(=O)(=O)c2cc3c(cc2C)NC(=O)CO3)cc1 .
Result: > 6.00

Query: Bench note: what pIC50 did CCS(=O)(=O)c1cc2c(c(S(=O)(=O)Nc3ccc(F)cc3F)c1)OCC(=O)N2 show?
Result: ≤ 4.60

Query: Given the entry O=C1COc2c(cc(Br)cc2S(=O)(=O)NCc2ccc(C(F)(F)F)cc2)N1 , report its measured pIC50.
Result: 4.60 to 6.00

Query: Data request, read-out pIC50, for CCC1Oc2cc(S(=O)(=O)Nc3cccc(Cl)c3)c(Cl)cc2NC1=O (stereo not shown)
Result: > 6.00

New cases:
Query: Which pIC50 is reported for this molecule? CC(C)NC(=O)N1c2cc(S(=O)(=O)N3CCCC3)ccc2NC(=O)C1C (stereo not shown)
Result: ≤ 4.60

Query: pIC50; subject: CC1Oc2c(cc(Br)cc2S(=O)(=O)NCc2ccc(C(F)(F)F)cc2)NC1=O (stereo not shown)
Result: 4.60 to 6.00

Query: // query pIC50 value for entry CS(=O)(=O)c1cc2c(c(S(=O)(=O)Nc3ccc(F)cc3)c1)OCC(=O)N2
Result: ≤ 4.60

Query: Fill in the blank: the reported pIC50 of O=C1NCCOc2c1cc(Br)cc2S(=O)(=O)Nc1ccc(OC(F)(F)F)cc1 is ____.
Result: ≤ 4.60

Query: Look up pIC50: CC1Oc2cc(S(=O)(=O)Nc3ccc(Cl)cc3)c(Br)cc2N(C)C1=O (stereo not shown)
Result: ≤ 4.60

Query: // returns reported pIC50 for input CCC1Oc2cc(S(=O)(=O)NC3CCC(O)CC3)c(Br)cc2NC1=O (stereo not shown)
Result: ≤ 4.60

Query: Look up pIC50 for this molecule: O=C1COc2cc(S(=O)(=O)NC3CCC(O)CC3)c(Br)cc2N1 (stereo not shown)
Result: ≤ 4.60

Query: Which measured pIC50 value corresponds to CC(C)NS(=O)(=O)c1cc(Cl)cc2c1OC(C)C(=O)N2 (stereo not shown) ?
Result: ≤ 4.60

---

- Target: CB1 (CNR1) (Homo sapiens, UniProt P21554)
- Assay Procedure: cAMP CNR1 Hunter cell line antagonist assay (CB1 assay)
- Test Parameters: antagonist mode, cAMP CNR1 Hunter cells, EC80 agonist; read-out: CB1 assay, Efficacy (IC50)
Reported Endpoint: IC50

These solved cases illustrate the format of a correct answer.
Query: Tell me the measured IC50 of CC1Oc2cc(S(=O)(=O)Nc3cccc(Cl)c3)c(Br)cc2N(C)C1=O (stereo not drawn) , please.
Result: ≥ 25 µM

Query: Item O=C1COc2cc(S(=O)(=O)NCc3ccc(F)cc3F)c(Br)cc2N1 has what recorded IC50?
Result: ≥ 25 µM

Query: # input molecule: O=C1COc2c(cc(Cl)cc2S(=O)(=O)Nc2ccccc2)N1 ; wanted: its IC50
Result: 1 to 25 µM

Query: So what's the measured IC50 for this one? CC1Oc2c(cc(Br)cc2S(=O)(=O)Nc2ccc(F)cc2F)N(C)C1=O (stereo not drawn)
Result: ≥ 25 µM

Query: // returns reported IC50 for input CCc1ccc(NS(=O)(=O)c2cc(Br)cc3c2OCCC(=O)N3)cc1
Result: 1 to 25 µM

Next:
Query: Quick one: IC50 of CCS(=O)(=O)c1cc2c(c(S(=O)(=O)Nc3ccc(C)c(F)c3)c1)OCC(=O)N2 ?
Result: ≥ 25 µM

Query: Field request: IC50 | item: Cc1ccc(NS(=O)(=O)c2cc(S(C)(=O)=O)cc3c2OCC(=O)N3)cc1
Result: ≥ 25 µM

Query: Suppose we examine the molecule CCc1cccc(NS(=O)(=O)c2cc3c(cc2Br)N(C)C(=O)C(C)O3)c1 (stereo not drawn) ; what IC50 value has been reported?
Result: ≥ 25 µM

Query: For CC1Oc2c(cc(Br)cc2S(=O)(=O)N2CCN(C)CC2)NC1=O (stereo not drawn) , what is its reported IC50?
Result: 1 to 25 µM

---

pIC50 by entry:
- Target: UniProt P21554
- Assay Procedure: cAMP CNR1 Hunter cell line antagonist assay (CB1 assay)
- Test Parameters: antagonist mode, cAMP CNR1 Hunter cells, EC80 agonist; read-out: CB1 assay, Efficacy (IC50)
- Experimental: cAMP CNR1 Hunter cell line (Eurofins DiscoveryX) were expanded from freezer stocks and seeded in a total volume of 20 μL into white walled, 384-well microplates and incubated at 37° C. for the appropriate time prior to testing. […] Microplates were read following signal generation with a PerkinElmer Envision™ instrument for chemiluminescent signal detection. Compound activity (IC50) was analyzed using CBIS data analysis suite (ChemInnovation, CA).
pIC50: −log10 of the molar value.

Reference set (5 entries):
Query: Recorded pIC50 for O=C1NCCOc2c1cc(Br)cc2S(=O)(=O)Nc1ccc(F)c(F)c1 , please?
Result: ≤ 4.60

Query: What does the record list as pIC50 for O=C1COc2cc(S(=O)(=O)Nc3ccc(OC(F)(F)F)cc3)c(Cl)cc2N1 ?
Result: > 6.00

Query: Any idea what pIC50 was measured for CC(C)CC1Oc2c(cc(Br)cc2S(=O)(=O)Nc2ccc(F)cc2)NC1=O (stereo not shown) ?
Result: 4.60 to 6.00

Query: // returns reported pIC50 for input CCC1Oc2c(cc(Cl)cc2S(=O)(=O)Nc2ccc(C)cc2)NC1=O (stereo not shown)
Result: 4.60 to 6.00

Query: Which pIC50 value belongs to NS(=O)(=O)c1ccc2c(c1)N1CCCC1C(=O)N2 (stereo not shown) ?
Result: ≤ 4.60

Next compound, pIC50 to be filled in.
Query: Record request: pIC50 value, item CCC1Oc2c(cc(Br)cc2S(=O)(=O)NCc2ccc(C(F)(F)F)cc2)NC1=O (stereo not shown)
Result: ≤ 4.60

Data credit: patent US20240000806A1
